# Tested system: human p38 kinase alpha (Homo sapiens)
# Construct: The coding region of the human p38a cDNA was obtained by PCR-amplification from RNA isolated from the human monocyte cell line THP.1; GST (N); made in house; host or cells: E. coli DH10B
# Sequence (Q16539 whole entry): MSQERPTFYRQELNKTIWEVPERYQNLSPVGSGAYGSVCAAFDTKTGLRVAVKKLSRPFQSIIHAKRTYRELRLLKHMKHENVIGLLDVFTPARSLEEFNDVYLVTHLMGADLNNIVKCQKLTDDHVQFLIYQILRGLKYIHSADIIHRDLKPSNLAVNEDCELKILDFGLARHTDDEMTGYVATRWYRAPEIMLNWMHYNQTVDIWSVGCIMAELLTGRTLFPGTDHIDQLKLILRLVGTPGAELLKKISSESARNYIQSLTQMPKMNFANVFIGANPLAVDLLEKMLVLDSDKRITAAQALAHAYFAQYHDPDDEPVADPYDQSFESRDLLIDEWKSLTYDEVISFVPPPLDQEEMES
# Protocol description: p38 kinase in vitro assay, phosphorylation of biotinylated PHAS-I with gamma 32P-ATP
# Format: biochemical
# Condition set: activated human p38 kinase alpha, PHAS-I substrate, 50 μM unlabeled ATP; read-out: p38 kinase IC50
Readout name: IC50 (µM)

Some compounds with known IC50 results, for comparison:
>  <Compound>
Cc1n[nH]c(-c2ccccc2)c1-c1ccncc1 [Example A-2]

>  <Tested system>
human p38 kinase alpha (Homo sapiens)

>  <IC50, µM>
1.5

$$$$
>  <Compound>
COc1ccc(-c2[nH]nc(C)c2-c2ccncc2)cc1F [Example A-1]

>  <Tested system>
human p38 kinase alpha (Homo sapiens)

>  <IC50, µM>
4.6

$$$$
>  <Compound>
COc1cc(F)cc(-c2[nH]nc(C)c2-c2ccncc2)c1 [Example A-25]

>  <Tested system>
human p38 kinase alpha (Homo sapiens)

>  <IC50, µM>
2.6

$$$$

A = Fc1ccc(-c2n[nH]c(-c3ccncc3)c2-c2ccncc2)cc1 [Example A-23]
B = Cc1n[nH]c(-c2ccccc2O)c1-c1ccncc1 [Example A-16]
Request: Given A and B , report the one with the higher recorded IC50. // caller expects the label of the chosen entry
Result: B
(B: 3.8 µM, A: 1.5 µM)

====

# System: TNF-α
# Protocol description: LPS stimulation of TNF production by U937 cells
# Assay type: cell-based, human
# Condition set: Homo sapiens, U-937, TNF production, LPS-stimulated human U937 cells; read-out: U937 Cell IC50
pIC50: −log10 of the molar value.
Readout name: pIC50

Some compounds with known pIC50 results, for comparison:
>  <Compound>
O=C(COc1ccc(Cl)cc1)NCc1[nH]nc(-c2ccc(F)cc2)c1-c1ccncc1 [Example B-0093]

>  <pIC50>
5.90

$$$$
>  <Compound>
C[C@@H](NC(=O)NCc1ccccc1)c1[nH]nc(-c2ccc(F)cc2)c1-c1ccncc1 [Example B-0403]

>  <pIC50>
5.62

$$$$

A = CC(C)COC(=O)NCc1[nH]nc(-c2ccc(F)cc2)c1-c1ccncc1 [Example B-0009]
B = C[C@@H](NC(N)=O)c1[nH]nc(-c2ccc(F)cc2)c1-c1ccncc1 [Example B-0402]
Request: Given A and B , report the one with the higher recorded pIC50. // caller expects the label of the chosen entry
Result: A
(A: 6.14, B: 5.82)

====

Counter-ions that a name gives are not always drawn.
Let's look at some compounds and their measured melting point.

Some compounds with known melting point results, for comparison:
>  <Compound>
Cc1ccccc1C(=O)C(=C1SCS1)c1ccncc1 [Example A-392]

>  <Readout name>
melting point

>  <Result>
126.5 to 126.6 °C

$$$$
>  <Compound>
CCc1cccc(-c2[nH]nc(C)c2-c2ccncc2)c1 [Example A-185]

>  <Readout name>
melting point

>  <Result>
189.25 °C

$$$$
>  <Compound>
Fc1ccc(-c2[nH]nc(N3CCNCC3)c2-c2ccncc2)cc1 (as salt: hydrochloride) [Example A-172, trihydrochloride]

>  <Readout name>
melting point

>  <Result>
204 to 206 °C

$$$$
>  <Compound>
C=Cc1ccc(C(=O)C(=C2SCS2)c2ccncc2)cc1 [Example A-403]

>  <Readout name>
melting point

>  <Result>
176.6 to 176.7 °C

$$$$
>  <Compound>
Cn1nc(-c2ccc(F)cc2)c(-c2ccncc2)c1C1CC1 [Example A-191]

>  <Readout name>
melting point

>  <Result>
129 to 130 °C

$$$$
>  <Compound>
O=C(C(=C1SCS1)c1ccncc1)c1ccc(I)cc1 [Example A-401]

>  <Readout name>
melting point

>  <Result>
257.6 to 257.7 °C

$$$$

Request: Which melting point is reported for this compound? Cc1ccc(C(=O)C(=C2SCS2)c2ccncc2)cc1 [Example A-400]
Result: 209.1 to 215.1 °C

Request: Which melting point is reported for this compound? NC(=O)c1cc(-c2cn[nH]c2-c2ccc(F)cc2)ccn1 [Example A-223]
Result: 230 to 231 °C

Request: Which melting point is reported for this compound? Cn1nc(-c2ccc(F)cc2)c(-c2ccncc2)c1Br [Example A-214]
Result: 174.38 °C
